Target: CYP2C9 (Homo sapiens (Human), UniProt P11712)
Sequence (P11712 whole entry): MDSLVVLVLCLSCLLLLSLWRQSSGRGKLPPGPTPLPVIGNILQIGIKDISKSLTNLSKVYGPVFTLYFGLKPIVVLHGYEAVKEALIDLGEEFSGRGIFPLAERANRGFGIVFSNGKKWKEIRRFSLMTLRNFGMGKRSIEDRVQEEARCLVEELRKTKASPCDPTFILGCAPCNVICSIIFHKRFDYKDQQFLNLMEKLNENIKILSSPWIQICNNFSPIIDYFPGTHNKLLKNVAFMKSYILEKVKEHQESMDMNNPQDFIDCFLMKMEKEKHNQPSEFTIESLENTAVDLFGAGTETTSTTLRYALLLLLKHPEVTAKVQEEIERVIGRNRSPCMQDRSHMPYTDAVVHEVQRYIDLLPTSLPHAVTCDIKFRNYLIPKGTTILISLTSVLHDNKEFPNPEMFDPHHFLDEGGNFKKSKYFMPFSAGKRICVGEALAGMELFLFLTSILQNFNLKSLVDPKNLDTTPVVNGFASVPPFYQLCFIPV
Assay: CYP enzyme inhibition, fluorescent substrate (MFC)
pIC50: −log10 of the molar value.
For each record, write down the corresponding pIC50.

The compound listed as `CCCS(=O)(=O)Nc1ccc(F)c(C(=O)c2c[nH]c3ncc(F)c(C#N)c23)c1F` shows pIC50 equal to > 5.30

Data point: `CCCS(=O)(=O)Nc1ccc(F)c(C(=O)c2c[nH]c3ncnc(OCC)c23)c1F` ; pIC50 = < 5.00

The value of pIC50 measured for the compound `CCOc1ncnc2[nH]cc(C(=O)c3c(F)ccc(NS(=O)(=O)c4ccc(C(F)(F)F)cc4)c3F)c12` turned out to be 5.00 to 5.30

Looking up `N#Cc1c(F)cnc2[nH]cc(C(=O)c3c(F)ccc(NS(=O)(=O)c4ccc(C(F)(F)F)cc4)c3F)c12` , I see its pIC50 listed as < 5.00

Entry `COc1ncnc2[nH]cc(C(=O)c3c(F)ccc(NS(=O)(=O)CC(C)C)c3F)c12` , pIC50 reported as 5.00 to 5.30

// recorded pIC50 for `CCCS(=O)(=O)Nc1ccc(F)c(C(=O)c2c[nH]c3ncc(C#N)c(OC)c23)c1F` : > 5.30

Recorded pIC50 (compound `CCCS(=O)(=O)Nc1ccc(F)c(C(=O)c2c[nH]c3ncc(C)c(Cl)c23)c1F` ): < 5.00

The recorded pIC50 for `CCCc1ccc(S(=O)(=O)Nc2ccc(F)c(C(=O)c3c[nH]c4ncnc(OCC)c34)c2F)cc1` is 5.00 to 5.30

---

I'd be grateful if you could share measured IC50 for these entries.
Target: CYP2C19 (Homo sapiens (Human))
Sequence (P33261 whole entry): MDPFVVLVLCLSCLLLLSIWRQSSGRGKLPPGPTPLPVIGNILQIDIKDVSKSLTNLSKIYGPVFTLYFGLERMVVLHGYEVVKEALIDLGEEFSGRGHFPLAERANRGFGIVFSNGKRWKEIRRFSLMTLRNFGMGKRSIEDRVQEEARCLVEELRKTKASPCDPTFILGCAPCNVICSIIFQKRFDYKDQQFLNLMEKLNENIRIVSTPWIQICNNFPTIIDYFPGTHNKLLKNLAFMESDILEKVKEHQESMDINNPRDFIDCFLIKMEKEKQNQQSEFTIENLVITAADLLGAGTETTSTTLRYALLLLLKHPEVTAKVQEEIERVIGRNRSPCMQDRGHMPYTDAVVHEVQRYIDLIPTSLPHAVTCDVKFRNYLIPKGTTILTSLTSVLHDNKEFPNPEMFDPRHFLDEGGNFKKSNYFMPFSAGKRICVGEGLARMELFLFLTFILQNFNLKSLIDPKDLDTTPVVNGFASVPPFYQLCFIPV
Experiment: CYP enzyme inhibition, fluorescent substrate (CEC)
Conditions: read-out: Cyp IC50 2C19; CYP2C19, substrate CEC

The reported value for CCCS(=O)(=O)Nc1ccc(F)c(C(=O)c2c[nH]c3nccc(NC4CCOCC4)c23)c1F [P-2013] in terms of IC50 is > 10 µM

// sample CCCS(=O)(=O)Nc1ccc(F)c(C(=O)c2c[nH]c3ncnc(Nc4cn(C)nc4C)c23)c1F [P-1100] , its IC50 was > 10 µM

Memo: CCCS(=O)(=O)Nc1ccc(F)c(C(=O)c2c[nH]c3ncnc(NC4COC4)c23)c1F [P-1060] , reported IC50: > 10 µM

Item: CCn1cc(Nc2ncnc3[nH]cc(C(=O)c4c(F)ccc(NS(=O)(=O)c5cc(F)ccc5F)c4F)c23)cn1 [P-1142] | IC50: > 10 µM

What the record says about O=C(c1c(F)ccc(NS(=O)(=O)c2ccc(C(F)(F)F)cc2)c1F)c1c[nH]c2ncnc(Nc3ccccc3)c12 [P-1037] : IC50 is < 5 µM

IC50 reported for this molecule O=C(c1c(F)ccc(NS(=O)(=O)c2ccc(C(F)(F)F)cc2)c1F)c1c[nH]c2ncnc(O)c12 [P-1012] : > 10 µM

Briefly, IC50 measured for Cc1cc(C)cc(S(=O)(=O)Nc2ccc(F)c(C(=O)c3c[nH]c4ncnc(NC(C)C)c34)c2F)c1 [P-1045] : < 5 µM

Input CCOc1ncnc2[nH]cc(C(=O)c3c(F)ccc(NS(=O)(=O)c4ccc(C(F)(F)F)cc4)c3F)c12 [P-1006] . Output IC50: > 10 µM

---

Target: CYP3A4(BFC) (Homo sapiens (Human))
Sequence (P08684 whole entry): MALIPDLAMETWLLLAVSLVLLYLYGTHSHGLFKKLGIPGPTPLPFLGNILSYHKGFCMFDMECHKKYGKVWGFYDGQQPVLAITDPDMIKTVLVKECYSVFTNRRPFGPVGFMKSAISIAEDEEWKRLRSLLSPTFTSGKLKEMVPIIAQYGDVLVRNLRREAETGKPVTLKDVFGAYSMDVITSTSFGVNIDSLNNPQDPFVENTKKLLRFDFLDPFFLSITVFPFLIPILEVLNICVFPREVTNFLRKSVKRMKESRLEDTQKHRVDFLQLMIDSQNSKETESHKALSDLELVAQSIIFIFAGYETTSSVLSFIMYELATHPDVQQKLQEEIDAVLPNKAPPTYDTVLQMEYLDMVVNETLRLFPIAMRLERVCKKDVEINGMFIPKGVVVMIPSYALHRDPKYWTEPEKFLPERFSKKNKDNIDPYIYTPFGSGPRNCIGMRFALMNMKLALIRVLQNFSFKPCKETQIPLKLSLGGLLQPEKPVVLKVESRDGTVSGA
Experiment: CYP enzyme inhibition, fluorescent substrate BFC
Could you please report measured IC50 for the items listed next?

CCCc1ccc(S(=O)(=O)Nc2ccc(F)c(C(=O)c3c[nH]c4ncnc(NC(C)C)c34)c2F)cc1 [P-1055] yielded IC50 of 5 to 10 µM

Data point: CCCc1ccc(S(=O)(=O)Nc2ccc(F)c(C(=O)c3c[nH]c4ncnc(OC)c34)c2F)cc1 [P-1005] ; IC50 = 5 to 10 µM

Entry CCCS(=O)(=O)Nc1ccc(F)c(C(=O)c2c[nH]c3ncc(F)c(C#N)c23)c1F [P-2003] — recorded IC50 = 5 to 10 µM

Per the record, Cc1c(Cl)cnc2[nH]cc(C(=O)c3c(F)ccc(NS(=O)(=O)c4ccc(C(F)(F)F)cc4)c3F)c12 [P-2011] has IC50 of > 10 µM

compound N#Cc1c(Cl)cnc2[nH]cc(C(=O)c3c(F)ccc(NS(=O)(=O)c4ccc(C(F)(F)F)cc4)c3F)c12 [P-2010] , IC50 observed: > 10 µM

Query Cn1cc(Nc2ncnc3[nH]cc(C(=O)c4c(F)ccc(NS(=O)(=O)c5ccc(C(F)(F)F)cc5)c4F)c23)cn1 [P-1062] yields IC50 of 5 to 10 µM

IC50 in this record for CCCS(=O)(=O)Nc1ccc(F)c(C(=O)c2c[nH]c3ncc(Cl)c(C)c23)c1F [P-2008] : > 10 µM

CCCc1ccc(S(=O)(=O)Nc2ccc(F)c(C(=O)c3c[nH]c4ncnc(Cl)c34)c2F)cc1 [P-1034] yielded IC50 of 5 to 10 µM

IC50 measured on N#Cc1c(F)cnc2[nH]cc(C(=O)c3c(F)ccc(NS(=O)(=O)c4ccc(C(F)(F)F)cc4)c3F)c12 [P-2009] = > 10 µM

CC(C)Cc1ncnc2[nH]cc(C(=O)c3c(F)ccc(NS(=O)(=O)c4ccc(C(F)(F)F)cc4)c3F)c12 [P-1015] yielded IC50 of 5 to 10 µM

// IC50 lookup, compound = CCn1cc(Nc2ncnc3[nH]cc(C(=O)c4c(F)ccc(NS(=O)(=O)c5ccc(C(F)(F)F)cc5)c4F)c23)cn1 [P-1063] , result: 5 to 10 µM

Reported IC50 of CCCc1ccc(S(=O)(=O)Nc2ccc(F)c(C(=O)c3c[nH]c4ncnc(C)c34)c2F)cc1 [P-1007] : 5 to 10 µM

Quick note, IC50 for COCCNc1ncnc2[nH]cc(C(=O)c3c(F)ccc(NS(=O)(=O)c4ccc(C(F)(F)F)cc4)c3F)c12 [P-1058] landed at 5 to 10 µM

compound CCCS(=O)(=O)Nc1ccc(F)c(C(=O)c2c[nH]c3ncnc(OCC)c23)c1F [P-1002] , IC50 observed: > 10 µM

Lookup result for CC(C)Nc1ncnc2[nH]cc(C(=O)c3c(F)ccc(NS(=O)(=O)c4ccc(C(F)(F)F)cc4)c3F)c12 [P-1039] ; measured IC50: 5 to 10 µM

---

Biological target: B-Raf V600E (Homo sapiens (Human), UniProt P15056, V600E)
Sequence (P15056 whole entry V600E): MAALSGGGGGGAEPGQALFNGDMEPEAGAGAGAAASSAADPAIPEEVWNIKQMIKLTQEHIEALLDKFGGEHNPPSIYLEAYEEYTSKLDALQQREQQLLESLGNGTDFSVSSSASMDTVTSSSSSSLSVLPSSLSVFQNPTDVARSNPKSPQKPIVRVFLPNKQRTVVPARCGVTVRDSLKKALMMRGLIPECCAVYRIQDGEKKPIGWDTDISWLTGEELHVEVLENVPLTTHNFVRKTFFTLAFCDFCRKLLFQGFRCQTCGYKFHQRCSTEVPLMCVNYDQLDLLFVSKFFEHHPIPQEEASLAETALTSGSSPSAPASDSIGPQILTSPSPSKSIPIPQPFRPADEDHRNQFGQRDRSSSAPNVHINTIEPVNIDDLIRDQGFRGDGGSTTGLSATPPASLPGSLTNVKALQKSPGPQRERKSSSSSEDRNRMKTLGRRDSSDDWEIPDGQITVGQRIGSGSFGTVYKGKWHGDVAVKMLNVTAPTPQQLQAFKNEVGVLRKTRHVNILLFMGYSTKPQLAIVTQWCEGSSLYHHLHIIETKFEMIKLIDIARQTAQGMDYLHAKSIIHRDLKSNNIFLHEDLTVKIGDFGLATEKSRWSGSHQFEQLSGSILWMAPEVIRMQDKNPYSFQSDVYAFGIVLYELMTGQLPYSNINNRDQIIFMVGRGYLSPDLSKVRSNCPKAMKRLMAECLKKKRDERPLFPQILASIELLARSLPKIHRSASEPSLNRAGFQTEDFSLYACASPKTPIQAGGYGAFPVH
Assay: B-Raf V600E kinase activity biochemical assay (AlphaScreen, biotin-MEK1 phosphorylation)
Settings: B-Raf V600E
PROPERTY NAME: IC50

get_value(item= CCCc1ccc(S(=O)(=O)Nc2ccc(F)c(C(=O)c3c[nH]c4ncnc(OC)c34)c2F)cc1 [P-1005] , readout=IC50) returns > 0.1 µM

The compound listed as CNc1ncnc2[nH]cc(C(=O)c3c(F)ccc(NS(=O)(=O)c4ccc(C(F)(F)F)cc4)c3F)c12 [P-1026] shows IC50 equal to > 0.1 µM

# IC50 of COc1ncnc2[nH]cc(C(=O)c3c(F)ccc(NS(=O)(=O)c4cc(C)cc(C)c4)c3F)c12 [P-1025] = > 0.1 µM

Short answer for CCCNc1ncnc2[nH]cc(C(=O)c3c(F)ccc(NS(=O)(=O)c4ccc(C(F)(F)F)cc4)c3F)c12 [P-1032] : IC50 was < 0.1 µM

Summary for this compound, Cc1cc(C)cc(S(=O)(=O)Nc2ccc(F)c(C(=O)c3c[nH]c4ncnc(NC(C)C)c34)c2F)c1 [P-1045] : IC50 is < 0.1 µM

Record CCCS(=O)(=O)Nc1ccc(F)c(C(=O)c2c[nH]c3ncc(C#N)c(OC)c23)c1F [P-2005] . Reported IC50: < 0.1 µM

---

Target: B-Raf V600E (Homo sapiens (Human), UniProt P15056, V600E)
Test: B-Raf V600E kinase activity biochemical assay (AlphaScreen, biotin-MEK1 phosphorylation)
Details: B-Raf V600E
Method: Compounds to be tested are diluted in dimethyl sulfoxide to a concentration of 0.1 mM. These are serially diluted 15 μL into 30 μL of dimethyl sulfoxide seven times in 96 well plates for a total of 8 dilution points, and for each dilution point 1 μL is added to a well of an assay plate. […] The reaction is started with addition of 10 μL of 200 μM ATP (i.e. final 100 μM ATP). […] The plates are incubated for 3 hours at room temperature and read on Envision reader (Perkin Elmer). […]
Would you kindly list IC50 for each of these molecules?

GET /value?item= CCCS(=O)(=O)Nc1ccc(F)c(C(=O)c2c[nH]c3ncc(OC)c(Cl)c23)c1F [P-2002] &field=IC50 returns < 0.1 µM

Briefly, IC50 measured for CCc1ccc(S(=O)(=O)Nc2ccc(F)c(C(=O)c3c[nH]c4ncnc(NC(C)C)c34)c2F)cc1 [P-1042] : < 0.1 µM

Note to self: IC50 recorded for CCc1ccc(S(=O)(=O)Nc2ccc(F)c(C(=O)c3c[nH]c4ncnc(C)c34)c2F)cc1 [P-1019] was > 0.1 µM

Quick note, IC50 for CC(C)c1ncnc2[nH]cc(C(=O)c3c(F)ccc(NS(=O)(=O)c4ccc(C(F)(F)F)cc4)c3F)c12 [P-1029] landed at > 0.1 µM
